# STUDY TARGET: HLA-A*0201 (Homo sapiens, UniProt P04439, D140Y/D185E/D98H/E176V/E277Q/G131W/G231S/I119V/I121R/I166T/I218V/L300P/L318F/N151K/N90K/P208A/P217A/Q86G/Q94H/R138H/R169H/T345S)
# ASSAY TEXT: HLA class I binding assay, purified HLA, inhibition of 125I-labelled probe peptide
# SETUP CONDITIONS: A*[…], A2 supermotif cross-reactive binding data
METRIC NAME: IC50
Give your result as the value with the unit written after it.

Ask | Please give the measured IC50 for this molecule: CC[C@H](C)[C@H](NC(=O)[C@H](Cc1c[nH]c2ccccc12)NC(=O)[C@@H](NC(=O)[C@@H](NC(=O)[C@H](CO)NC(=O)[C@H](CC(C)C)NC(=O)[C@@H](N)[C@@H](C)O)C(C)C)[C@@H](C)O)C(=O)NCC(=O)N[C@H](C(=O)O)C(C)C [Peptide 60.0217]
Reply | 26 nM

Ask | Then what about the molecule CC[C@H](C)[C@H](N)C(=O)N[C@H](C(=O)N[C@@H](CC(C)C)C(=O)N[C@@H](CO)C(=O)N[C@H](C(=O)NCC(=O)N[C@@H](CS)C(=O)N[C@H](C(=O)NCC(=O)N[C@@H](C)C(=O)N[C@H](C(=O)O)C(C)C)[C@@H](C)O)C(C)C)[C@@H](C)O [Peptide 1418.59] ?
Reply | 294 nM

Ask | Repeat for the following molecule: CC[C@H](C)[C@H](NC(=O)[C@H](CO)NC(=O)[C@@H](NC(=O)CN)C(C)C)C(=O)N[C@@H](Cc1c[nH]c2ccccc12)C(=O)N[C@@H](CC(N)=O)C(=O)N1CCC[C@H]1C(=O)N[C@H](C(=O)N[C@H](C(=O)O)C(C)C)[C@@H](C)CC [Peptide 60.0207]
Reply | 455 nM

Ask | Would you mind doing CC(C)C[C@H](NC(=O)[C@H](CC(C)C)NC(=O)[C@H](Cc1c[nH]cn1)NC(=O)[C@H](CC(C)C)NC(=O)[C@H](CO)NC(=O)[C@@H](NC(=O)[C@H](CS)NC(=O)[C@H](CCC(N)=O)NC(=O)[C@H](CC(C)C)NC(=O)[C@@H](N)CO)C(C)C)C(=O)O [Peptide 1419.66] as well?
Reply | 263 nM
